Measured values drawn from the supplement of paper PMC10567573 for this set.

- assay_explanation: protein stability index of a GFP-peptide fusion (GPS, HEK-293T) (PSI 1-6); higher = more stable;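 further: 24-mer peptide tiles fused after GFP, lentivirally expressed, FACS-sorted into six equal bins by GFP/DsRed ratio, decoded by Illumina sequencing, PSI is the read-weighted mean bin number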
- test_parameters: treatment: DMSO; c terminus: a fixed tail appended
value_type: protein stability index
Give the value as a plain number.

1. MKYYIVHLKRHFMFRNHLCLVFEL [DYRK1B] ... 2.9

What value of protein stability index has been reported for the following sequence? VVKEEISDDNAKLPCFNGRVVSWL [DVL3]
2.94

What value of protein stability index has been reported for the following sequence? EAVESRGGVPGGCVLVPRADLRLG [SMAD6]
4.07

What value of protein stability index has been reported for the following sequence? FDRVDENNPEYLRERNMAPDLRQD [ADD1]
5.1

What value of protein stability index has been reported for the following sequence? IHSIPKGTEITIAFDFDYGNCKYK [KMT2E]
2.19

What value of protein stability index has been reported for the following sequence? RENSKPRAILKPRKVCVGGKRRKD [PPP2R2B]
4.73

What value of protein stability index has been reported for the following sequence? NPWNWGKLAEAYLNLGPALSAALA [C8orf76]
2.57

What value of protein stability index has been reported for the following sequence? PTFMIAVFLPIVVLIFKSILFLPC [STEAP1]
3.22

What value of protein stability index has been reported for the following sequence? KIRRFNKAKPEPDILEEEKIYAYP [TMEM192]
3.27

What value of protein stability index has been reported for the following sequence? FFGMAFNFIVNDSRKKPIWNVLMW [SOAT1]
2.6

What value of protein stability index has been reported for the following sequence? GEVLKSSTFSSGPSDKMKWCLRVN [SPOPL]
2.46

What value of protein stability index has been reported for the following sequence? YEDGEVEEEADSCFGDDEDDSGTE [CDC34]
5.61

What value of protein stability index has been reported for the following sequence? LLSLKQNHEQEVNTLRCQLGDRLN [KRT33B]
3.38

What value of protein stability index has been reported for the following sequence? FSQETVMKFVPRYSLVLELSDSGA [APMAP]
2.75

What value of protein stability index has been reported for the following sequence? MSAAQGWDRNRRRGGGAAGAGGGG [KLHDC10]
4.97

What value of protein stability index has been reported for the following sequence? SSDESPGSKCSPEDLATAYNNRGQ [TTC32]
5.28

What value of protein stability index has been reported for the following sequence? DLVLHTNYTATVRGLRGPNLTSPA [TNXB]
2.79
